# Tested on: SH-SY5Y cells
# procedure_summary: AK (adenylate kinase) release ToxiLight cytotoxicity assay; further: reference of the scale not given here
# measurement_parameters: PKIS2 primary screening
Binary call on AK with cut-off 100: strictly below means y, and equality or higher means n.

Below, 5 compounds whose answers are already recorded.
compound	label
FC(F)(F)c1ccc(-c2ncn(CCCN3CCOCC3)c2-c2ccncc2)cc1 [UNC10225425A]	n
CC(=O)c1c(-c2ccncc2)[nH]c(-c2ccncc2)c1C [UNC10225248A]	n
Cc1c(Cn2c(C)c(C)n3c(=O)cc(N4CCOCC4)nc23)cccc1C(F)(F)F [UNC10225225A]	n
CC(C)(C)c1ccc(-n2cnc3c(N)ncnc32)cc1 [UNC10225367A]	y
Nc1nccc(-c2c(-c3ccc(F)cc3)ncn2C2CCN(CC(F)(F)F)CC2)n1 [UNC10225173A]	n

// query Threshold test, AK < 100: Cc1cccc(-c2nc(C)cc(Nc3ccncc3)n2)n1
// result y

// query Could you please tell me whether AK recorded for CN(C)Cc1ccc(-c2ccc3c(Nc4ccc(Oc5ccccn5)cc4)ccnc3c2)o1 [UNC10225428A] is less than 100?
// result y

// query # TODO verify AK < 100 strictly for this compound: Nc1ncnc2c1ncn2-c1ccc(Cl)cc1 [UNC10225203A]
// result n
